assay: in vitro; details: mouse, plasma
molecules and their reported fraction unbound at 5 h
Lab note: record just the number, no unit beside it.

The examples below pair each entry with its known result.
{"columns": ["molecule", "result-number"],
 "data": [
  ["COC(=O)N[C@@H](C)C#Cc1cnc(Oc2ccc(OC(C)C)cc2)s1", 0.0099],
  ["COCC#Cc1cccc(C2(c3ccc(OC(F)F)cc3)N=C(N)N3CC(F)(F)CN=C32)c1 (centres undefined)", 0.013],
  ["COc1nc(Br)cnc1NS(=O)(=O)c1ccc(Cl)s1", 0.0191],
  ["C[C@H](CN(C(=O)c1ccc(C#N)cc1)c1ccccn1)N1CCN(c2cccc3c2OCCO3)CC1", 0.139],
  ["Fc1ccc(-c2c[nH]c(C3CCN(Cc4ccn(-c5ccc(C(F)(F)F)cc5)c4)CC3)n2)cc1", 0.0023]
]}

GET /value?item= `CCOC(=O)C1=C(C)NC(C)=C(C(C)=O)[C@H]1c1cccc2c(=O)cc(C)oc12` &field=fraction unbound at 5 h returns 0.0016

GET /value?item= CC#Cc1cncc(-c2ccc3c(c2)C2(N=C(C)C(N)=N2)[C@]2(CC[C@H](OC)CC2)C3)c1 (some centres undefined) &field=fraction unbound at 5 h returns 0.0041

GET /value?item= CN(C)C(=O)C(CCN1CCC(O)(c2ccc(Cl)cc2)CC1)(c1ccccc1)c1ccccc1 [LOPERAMIDE] &field=fraction unbound at 5 h returns 0.0358

GET /value?item= `COc1ccc2c(C)cc(N[C@H]3CC[C@H](NCc4cn(C)c5cccnc45)C3)nc2c1` &field=fraction unbound at 5 h returns 0.0647
